Cited source for all entries: paper PMC5540273

# Test system: p38-delta;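 further: KINOMEscan kinase panel screen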
# Measurement Parameters: concentration: 1 μM, replicates: in singlicate; n = 1
Lab note: cut-off is 20%. Strictly less in %Inh is fulfilled. Exactly 20% or more is not fulfilled.

Query: Report whether reported %Inh is lower than 20% (strictly) for "Fc1cccc(COc2ccc(Nc3ncnc4cc[nH]c34)cc2Cl)c1"
Result: not fulfilled

Query: Report whether reported %Inh is lower than 20% (strictly) for CC(C)(C)OC(=O)NC1CCCN(c2cc(-c3ccc4c(N)n[nH]c4c3)nc(N)n2)C1 (centres unmarked)
Result: not fulfilled

Query: Report whether reported %Inh is lower than 20% (strictly) for "CS(=O)(=O)CCNCc1ccc(-c2ccc3ncnc(Nc4ccc(OCc5ccccc5)c(Cl)c4)c3c2)o1.Cl"
Result: not fulfilled

Query: Report whether reported %Inh is lower than 20% (strictly) for "Cc1cccc(-c2nc(Nc3ccc4[nH]nnc4c3)c3ccccc3n2)n1"
Result: fulfilled

Query: Report whether reported %Inh is lower than 20% (strictly) for "Fc1cccc(COc2ccc(Nc3ncnc4nn5ccccc5c34)cc2Cl)c1"
Result: not fulfilled

Query: Report whether reported %Inh is lower than 20% (strictly) for "Nc1n[nH]c2nnc(-c3ccccc3)cc12"
Result: not fulfilled

Query: Report whether reported %Inh is lower than 20% (strictly) for "Cn1ccc2ncnc(Oc3ccc(NC(=O)Nc4cccnc4)c(Cl)c3)c21"
Result: fulfilled

Query: Report whether reported %Inh is lower than 20% (strictly) for "O=C(Nc1n[nH]c2nc(-c3ccco3)c(Br)cc12)c1ccc(CN2CCCC2)cc1.O=C(O)[C@H](O)[C@@H](O)C(=O)O"
Result: fulfilled
